biological target: c-MET (HGFR) (Homo sapiens, UniProt P08581); construct: purchased Upstate 14-526; experiment: HGFR Continuous-Coupled Spectrophotometric Assay; type: biochemical; conditions: Met-2 substrate peptide, 50 nM HGFR, 37° C.; read-out: c-Met Ki
Sequence (P08581 974-1390 limits assumed): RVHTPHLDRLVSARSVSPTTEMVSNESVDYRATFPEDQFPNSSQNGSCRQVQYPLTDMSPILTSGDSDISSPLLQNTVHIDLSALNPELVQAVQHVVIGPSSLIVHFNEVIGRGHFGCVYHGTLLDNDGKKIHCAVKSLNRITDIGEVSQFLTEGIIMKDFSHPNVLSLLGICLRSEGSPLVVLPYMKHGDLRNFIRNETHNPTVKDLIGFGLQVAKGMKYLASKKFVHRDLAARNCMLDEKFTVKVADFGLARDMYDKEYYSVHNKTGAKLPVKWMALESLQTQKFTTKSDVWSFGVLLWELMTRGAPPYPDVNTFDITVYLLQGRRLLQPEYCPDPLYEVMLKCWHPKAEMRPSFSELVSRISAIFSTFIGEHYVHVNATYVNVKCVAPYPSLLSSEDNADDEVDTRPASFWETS
pKi reference
# log scale: pKi equals minus log10 of the concentration in mol/L

Illustrative cases are given below, each with its answer.
[
  {
    "Molecule": "CC(Oc1cc(-c2cnn(C3CN(CC4CC4)C3)c2)cnc1N)c1c(Cl)ccc(F)c1Cl (centres unmarked)",
    "pKi": 7.42
  },
  {
    "Molecule": "COCCNC(=O)C(C)(C)n1cc(-c2cnc(N)c(OC(C)c3c(Cl)ccc(F)c3Cl)c2)cn1 (centres unmarked)",
    "pKi": 7.05
  },
  {
    "Molecule": "CC(Oc1cc(-c2cnn(C(C)(C)C(=O)NCCCN(C)C)c2)cnc1N)c1c(Cl)ccc(F)c1Cl (centres unmarked)",
    "pKi": 7.22
  }
]

CC(Oc1cc(-n2ncc3ccccc32)cnc1N)c1c(Cl)ccc(F)c1Cl (centres unmarked) has a reported pKi of 5.81

CC(Oc1cc(-c2cnn(C[C@H]3CCCN3)c2)cnc1N)c1c(Cl)ccc(F)c1Cl (some centres unmarked) has a reported pKi of 7.14

CC(Oc1cc(-c2cnn(CC3CCN(C)CC3)c2)cnc1N)c1c(Cl)ccc(F)c1Cl (centres unmarked) has a reported pKi of 7.62

CC(=O)N1CC(Cn2cc(-c3cnc(N)c(OC(C)c4c(Cl)ccc(F)c4Cl)c3)cn2)C1 (centres unmarked) has a reported pKi of 7.54

CC(Oc1cc(-c2cnn(C3CN(CCO)C3)c2)cnc1N)c1c(Cl)ccc(F)c1Cl (centres unmarked) has a reported pKi of 7.30

====

biological target: c-MET (HGFR) (Homo sapiens, UniProt P08581); construct: purchased Upstate 14-526; assay: HGFR Continuous-Coupled Spectrophotometric Assay; type: biochemical; settings: Met-2 substrate peptide, 50 nM HGFR, 37° C.; read-out: c-Met Ki
log10(Ki) reference
Field: value | Transform: log10 | Quantity: Ki | Unit: nM

[
  {
    "Compound": "CC(Oc1cc(-c2cnn(C3CN(S(C)(=O)=O)C3)c2)cnc1N)c1c(Cl)ccc(F)c1Cl (stereo not shown) [Example 104]",
    "Measured Parameter": "log10(Ki)",
    "Measured Result": 1.56
  }
]

Entry CC(Oc1cc(-c2cnn(C(C)(C)COCCN3CCCC3)c2)cnc1N)c1c(Cl)ccc(F)c1Cl (stereo not shown) [Example 62] ; assay system c-MET (HGFR) (Homo sapiens, UniProt P08581); log10(Ki) recorded at 2.36

====

target: c-MET (HGFR) (Homo sapiens); construct: purchased Upstate 14-526; assay: HGFR Continuous-Coupled Spectrophotometric Assay; format: biochemical; conditions: Met-2 substrate peptide, 50 nM HGFR, 37° C.; read-out: c-Met Ki
Measured Parameter: pKi
# log scale: pKi equals minus log10 of the concentration in mol/L

Illustrative cases are given below, each with its answer.
[
  {
    "Compound": "CC(Oc1cc(-c2cnn(CC(C)(C)C)c2)cnc1N)c1c(Cl)ccc(F)c1Cl (centres unmarked) [Example 23]",
    "pKi": 6.92
  },
  {
    "Compound": "CC(Oc1cc(-c2cnn(C3CCN(CC4CC4)CC3)c2)cnc1N)c1c(Cl)ccc(F)c1Cl (centres unmarked) [Example 45]",
    "pKi": 8.00
  },
  {
    "Compound": "CC(Oc1cc(-c2cnn(C(C)(C)C(=O)O)c2)cnc1N)c1c(Cl)ccc(F)c1Cl (centres unmarked) [Example 12]",
    "pKi": 6.74
  }
]

CC(Oc1cc(-c2cnn(C3CC4CCC(C3)N4C)c2)cnc1N)c1c(Cl)ccc(F)c1Cl (centres unmarked) [Example 115] has a reported pKi of 8.05

CC(Oc1cc(-c2cnn(C3CCC3)c2)cnc1N)c1c(Cl)ccc(F)c1Cl (centres unmarked) [Example 49] has a reported pKi of 7.70

CC(Oc1cc(-c2cnn(CCO)c2)cnc1N)c1c(Cl)ccc(F)c1Cl (centres unmarked) [Example 83] has a reported pKi of 7.34

CC(Oc1cc(-c2cnn(C3CCOC3)c2)cnc1N)c1c(Cl)ccc(F)c1Cl (centres unmarked) [Example 27] has a reported pKi of 7.40

CC(Oc1cc(-c2cnn(C3CCN(CC#N)CC3)c2)cnc1N)c1c(Cl)ccc(F)c1Cl (centres unmarked) [Example 42] has a reported pKi of 7.70

====

target: c-MET (HGFR) (Homo sapiens, UniProt P08581); construct: purchased Upstate 14-526; assay: HGFR Continuous-Coupled Spectrophotometric Assay; assay type: biochemical; details: Met-2 substrate peptide, 50 nM HGFR, 37° C.; read-out: Met Ki
Measured Parameter: log10(Ki) (log10 of the value in nM)
Field: value | Transform: log10 | Quantity: Ki | Unit: nM

Illustrative cases are given below, each with its answer.
[
  {
    "Compound": "CCOc1ccc(Cl)c(C(C)Oc2cc(-c3cnn(C4CCNCC4)c3)cnc2N)c1Cl (centres unmarked)",
    "Measured Parameter": "log10(Ki)",
    "Measured Result": 1.34
  },
  {
    "Compound": "CC(Oc1cc(-c2cnn(C)c2)cnc1N)c1c(Cl)c(F)cc(OC2CCNCC2)c1Cl (centres unmarked)",
    "Measured Parameter": "log10(Ki)",
    "Measured Result": 1.40
  }
]

CCS(=O)(=O)N1CCC(n2cc(-c3cnc(N)c(OC(C)c4c(Cl)ccc(F)c4Cl)c3)cn2)CC1 (centres unmarked) has a reported log10(Ki) of 1.20

CC(Oc1cc(-c2cnn(C3CCNCC3)c2)cnc1N)c1cc(F)ccc1C#N (centres unmarked) has a reported log10(Ki) of 2.93

CC(Oc1cc(-c2cnn(C3CCNCC3)c2)cnc1N)c1c(Cl)ccc(O)c1Cl (centres unmarked) has a reported log10(Ki) of 1.62

CC(Oc1cc(Br)cnc1N)c1c(Cl)c(F)cc(F)c1Cl (centres unmarked) has a reported log10(Ki) of 1.48

CC(Oc1cc(-c2cnn(C)c2)cnc1N)c1c(Cl)c(F)cc(F)c1Cl (centres unmarked) has a reported log10(Ki) of 1.86

CC(Oc1cc(-c2cnn(C[C@H]3CCC(=O)N3)c2)cnc1N)c1c(Cl)ccc(F)c1Cl (some centres unmarked) has a reported log10(Ki) of 1.38

====

molecular target: c-MET (HGFR) (Homo sapiens); construct: purchased Upstate 14-526; test: HGFR Continuous-Coupled Spectrophotometric Assay; format: biochemical; settings: Met-2 substrate peptide, 50 nM HGFR, 37° C.; read-out: Met Ki
Category scheme (Ki): low interval (below 30 nM), middle interval (30 nM to below 100 nM), high interval (100 nM or more)

[
  {
    "Compound": "CC(Oc1cc(-c2cnn(C3CCN(C(=O)CN4CCCC4)CC3)c2)cnc1N)c1c(Cl)ccc(F)c1Cl (centres unmarked)",
    "System": "c-MET (HGFR) (Homo sapiens)",
    "Cat": "low interval"
  }
]

Ask: For the record CC(Oc1cc(-c2cnn(C3CCNCC3)c2)cnc1N)c1c(Cl)c(F)cc(N(C)C)c1Cl (centres unmarked) , report the class its Ki corresponds to.
Reply: high interval

Ask: For the record CC(Oc1cc(-c2cnn(C3CCNCC3)c2)cnc1N)c1c(Cl)c(F)cc(N2CCCC2=O)c1Cl (centres unmarked) , report the class its Ki corresponds to.
Reply: middle interval

====

pKi reference
molecular target: c-MET (HGFR) (Homo sapiens, UniProt P08581); construct: purchased Upstate 14-526; experiment: HGFR Continuous-Coupled Spectrophotometric Assay; format: biochemical; details: Met-2 substrate peptide, 50 nM HGFR, 37° C.; read-out: Met Ki
# log scale: pKi equals minus log10 of the concentration in mol/L

[
  {
    "Compound": "CC(Oc1cc(-c2cnn(CC3(C)COC3)c2)cnc1N)c1c(Cl)ccc(F)c1Cl (stereo not shown)",
    "pKi": 7.30
  }
]

COCCOc1ccc(Cl)c(C(C)Oc2cc(-c3cnn(C4CCNCC4)c3)cnc2N)c1Cl (stereo not shown) has a reported pKi of 7.36

CCN(CC)CC(=O)N1CCC(n2cc(-c3cnc(N)c(OC(C)c4c(Cl)ccc(F)c4Cl)c3)cn2)CC1 (stereo not shown) has a reported pKi of 7.82

CC(Oc1cc(-c2cnn(CC3CCOCC3)c2)cnc1N)c1c(Cl)ccc(F)c1Cl (stereo not shown) has a reported pKi of 7.38

====

pKi reference
target: c-MET (HGFR) (Homo sapiens, UniProt P08581); construct: purchased Upstate 14-526; assay: HGFR Continuous-Coupled Spectrophotometric Assay; assay type: biochemical; details: Met-2 substrate peptide, 50 nM HGFR, 37° C.; read-out: c-Met Ki
# log scale: pKi equals minus log10 of the concentration in mol/L

[
  {
    "Compound": "CC(Oc1cc(-c2cnn(C3CCN(C(=O)OCCO)CC3)c2)cnc1N)c1c(Cl)ccc(F)c1Cl (stereo not drawn)",
    "Measured Result": 8.00
  },
  {
    "Compound": "CNC(=O)[C@H]1C[C@@H]1Cn1cc(-c2cnc(N)c(OC(C)c3c(Cl)ccc(F)c3Cl)c2)cn1 (stereo in doubt)",
    "Measured Result": 7.15
  },
  {
    "Compound": "CC(Oc1cc(-c2cnn(C(C)(C)C(=O)N3CCNCC3)c2)cnc1N)c1c(Cl)ccc(F)c1Cl (stereo not drawn)",
    "Measured Result": 6.36
  }
]

CC(Oc1cc(-c2cnn(C3CN(C(=O)CO)C3)c2)cnc1N)c1c(Cl)ccc(F)c1Cl (stereo not drawn) has a reported pKi of 7.66

Cc1ccn(-c2cnc(N)c(OC(C)c3c(Cl)ccc(F)c3Cl)c2)n1 (stereo not drawn) has a reported pKi of 5.72

CC(Oc1cc(-c2cnn(C[C@@H]3CCCN3)c2)cnc1N)c1c(Cl)ccc(F)c1Cl (stereo partly drawn) has a reported pKi of 7.38

CC(Oc1cc(-c2cnn([C@H](C)C(=O)NCCCN(C)C)c2)cnc1N)c1c(Cl)ccc(F)c1Cl (stereo in doubt) has a reported pKi of 7.40

CC(Oc1cc(-c2cnn(C(C)(C)C(=O)N(C)C)c2)cnc1N)c1c(Cl)ccc(F)c1Cl (stereo not drawn) has a reported pKi of 6.90

"C[C@@H](Oc1nc(-c2cnn(C3CCNCC3)c2)cnc1N)c1c(Cl)ccc(F)c1Cl" has a reported pKi of 8.00

COCCN1CC(n2cc(-c3cnc(N)c(OC(C)c4c(Cl)ccc(F)c4Cl)c3)cn2)C1 (stereo not drawn) has a reported pKi of 7.15

CC(Oc1cc(-c2cnn(C(C)(C)CN(C)C)c2)cnc1N)c1c(Cl)ccc(F)c1Cl (stereo not drawn) has a reported pKi of 7.08

CC(Oc1cc(-c2cnn(C(C)(C)C(=O)N3CC[C@@H](O)C3)c2)cnc1N)c1c(Cl)ccc(F)c1Cl (stereo partly drawn) has a reported pKi of 6.57

CC(Oc1cc(-c2cnn(C3CCN(S(C)(=O)=O)CC3)c2)cnc1N)c1c(Cl)ccc(F)c1Cl (stereo not drawn) has a reported pKi of 8.00

"C[C@@H](Oc1nc(-c2cn[nH]c2)cnc1N)c1c(Cl)ccc(F)c1Cl" has a reported pKi of 7.19

Cc1nn(C(C)(C)C(=O)NCCCN(C)C)cc1-c1cnc(N)c(OC(C)c2c(Cl)ccc(F)c2Cl)c1 (stereo not drawn) has a reported pKi of 7.05

Value source: patent US20060128724A1
